# credit: patent US10711000B2

Target: CYP 2C19 (Homo sapiens)
Sequence (P33261 whole entry): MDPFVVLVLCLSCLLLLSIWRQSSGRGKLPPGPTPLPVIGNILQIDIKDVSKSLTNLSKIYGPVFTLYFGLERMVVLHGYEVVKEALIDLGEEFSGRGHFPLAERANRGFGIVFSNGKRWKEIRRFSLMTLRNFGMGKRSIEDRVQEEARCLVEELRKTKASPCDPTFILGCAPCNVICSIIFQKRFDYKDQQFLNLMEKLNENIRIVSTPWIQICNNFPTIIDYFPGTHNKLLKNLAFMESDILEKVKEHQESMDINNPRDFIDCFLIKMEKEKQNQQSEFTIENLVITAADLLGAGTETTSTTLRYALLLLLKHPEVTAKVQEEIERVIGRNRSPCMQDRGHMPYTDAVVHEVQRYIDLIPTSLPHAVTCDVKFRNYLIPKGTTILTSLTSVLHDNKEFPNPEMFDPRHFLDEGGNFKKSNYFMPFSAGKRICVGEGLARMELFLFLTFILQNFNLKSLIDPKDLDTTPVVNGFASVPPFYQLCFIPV
metric_name: IC50 (µM)

a. CCc1nn2cc(F)c(N3CC4(CN(C(=O)[C@H]5CCOC5)C4)C3)cc2c1N(C)c1nc(-c2ccc(F)cc2)c(C#N)s1 [Example 102]
b. CCc1nc2c(C)cc(N3CCN(CC(=O)N4CC(O)C4)CC3)cn2c1N(C)c1nc(-c2ccc(F)cc2)c(C#N)s1 [GLPG1690]
I'm curious whether a or b has the smaller IC50 number. Which is it? Identify your pick by its label.
a

----------
Biological target: Autotaxin (Homo sapiens)
Construct: from tissue; host or cells: pooled human plasma
Test: LPA formation in pooled human plasma (ex vivo autotaxin inhibition)
Assay type: biochemical
Conditions: 2 hours incubation, LPA 20:4 by LC/MS/MS, read-out: LPA formation (20:4) (IC50)
pIC50: −log10 of the molar value.
Listed molecules paired with reported pIC50

Solved cases (5 shown):
molecule	recorded_result
CCc1nn2cc(F)c(N3CC4(CN(C(=O)C5CCN(C)CC5)C4)C3)cc2c1N(C)c1nc(-c2ccc(F)cc2)c(C#N)s1 [Example 106]	≥ 7.00
Cc1cn2nc(C3CC3)c(N(C)c3nc(-c4ccc(F)cc4)c(C#N)s3)c2cc1N1CCN(CC(=O)N2CC(O)C2)CC1 [Example 100]	≥ 7.00
CCc1nn2c(C)cc(N3CC4(CN(C(=O)C5(O)CC5)C4)C3)cc2c1N(C)c1nc(-c2ccc(F)cc2)c(C#N)s1 [Example 61]	6.30 to 7.00
CCc1nn2c(C)cc(N3CCC4(CCN(C)C4=O)CC3)cc2c1N(C)c1nc(-c2ccc(F)cc2)c(C#N)s1 [Example 50]	< 6.00
CCc1nn2cc(C)c(N3CCN(CC(=O)N4CC(O)C4)CC3)cc2c1N(C)c1nc(-c2ccc(F)cc2)c(C#N)s1 [Example 96]	≥ 7.00

Next item in the queue.
State its pIC50 on Autotaxin (Homo sapiens): CCc1nn2c(C)cc(-c3cnn(C[C@@H](O)CO)c3)cc2c1N(C)c1nc(-c2ccc(F)cc2)c(C#N)s1 [Example 72]
< 6.00
